# System: HeLa MZ
# protocolDetails: filipin (cholesterol) integrated intensity within LBPA endosomes, Z-score; higher = more cholesterol in LBPA endosomes
# measurementParameters: compound concentration in added solution (µM; 5 µl added to 20 µl cells): 10; 18 h
Where a name gives a salt, the structure may show the parent alone.
Rule: filipin (z-score) under -0.07 gives -1, otherwise 1.

- molecule: "C[N+]12CCC(CC1)C(OC(=O)C(O)(c1ccccc1)c1ccccc1)C2 (centres undefined) [Clidinium bromide]"
  targetUnderTest: "HeLa MZ"
  answerLabel: -1
- molecule: "CN1[C@@H]2C[C@@H](OC(=O)[C@H](CO)c3ccccc3)C[C@H]1[C@@H]1O[C@@H]12 [Scopolamine hydrochloride]"
  targetUnderTest: "HeLa MZ"
  answerLabel: 1
- molecule: "OC(c1ccccc1)(c1ccccc1)C1CCNCC1"
  targetUnderTest: "HeLa MZ"
  answerLabel: 1
- molecule: "C[C@]12C[C@H]3S[C@H]3C[C@@H]1CC[C@@H]1[C@@H]2CC[C@]2(C)[C@@H](O)CC[C@@H]12 [Epitiostanol]"
  targetUnderTest: "HeLa MZ"
  answerLabel: -1
- molecule: "C=CCN1CC[C@]23c4c5ccc(O)c4O[C@H]2C(=O)CC[C@@]3(O)[C@H]1C5 [Naloxone hydrochloride]"
  targetUnderTest: "HeLa MZ"
  answerLabel: -1
- molecule: "O[C@@H]1CCCC[C@H]1N1CCC(c2ccccc2)CC1 [L(-)-vesamicol hydrochloride]"
  targetUnderTest: "HeLa MZ"
  answerLabel: 1
- molecule: "O=C(NCNC(=O)NC1C(=O)NC(=O)N1CO)NC1C(=O)NC(=O)N1CO (centres undefined)"
  targetUnderTest: "HeLa MZ"
  answerLabel: -1
- molecule: "CN1C[C@H](C(=O)N[C@]2(C)O[C@@]3(O)[C@@H]4CCCN4C(=O)[C@H](Cc4ccccc4)N3C2=O)C[C@@H]2c3cccc4[nH]cc(c34)C[C@H]21 [Dihydroergotamine tartrate]"
  targetUnderTest: "HeLa MZ"
  answerLabel: 1
- molecule: "C[N+]1(C)CCCC(OC(=O)C(O)(c2ccccc2)c2ccccc2)C1 (centres undefined) [Mepenzolate bromide]"
  targetUnderTest: "HeLa MZ"
  answerLabel: -1
- molecule: "O=c1c2ccccc2[se]n1-c1ccccc1"
  targetUnderTest: "HeLa MZ"
  answerLabel: -1
- molecule: "CCN(CC)C(C)C(=O)c1ccccc1 (centres undefined) [Amfepramone hydrochloride]"
  targetUnderTest: "HeLa MZ"
  answerLabel: -1
- molecule: "CN1CCN(C(=O)OC2c3nccnc3C(=O)N2c2ccc(Cl)cn2)CC1 (centres undefined)"
  targetUnderTest: "HeLa MZ"
  answerLabel: -1
- molecule: "CN1[C@@H]2CC[C@H]1C[C@@H](OC1c3ccccc3CCc3ccccc31)C2 [Deptropine citrate]"
  targetUnderTest: "HeLa MZ"
  answerLabel: 1
- molecule: "Cc1cc(C(C#N)c2ccc(Cl)cc2)c(Cl)cc1NC(=O)c1cc(I)cc(I)c1O (centres undefined)"
  targetUnderTest: "HeLa MZ"
  answerLabel: -1
- molecule: "CC(=O)O[C@H]1C[C@@H]2CC[C@@H]3[C@H](CC[C@@]4(C)[C@H]3C[C@H]([N+]3(C)CCCCC3)[C@@H]4OC(C)=O)[C@@]2(C)C[C@@H]1[N+]1(C)CCCCC1 [Pancuronium bromide]"
  targetUnderTest: "HeLa MZ"
  answerLabel: -1
- molecule: "CC[C@@]1([C@@H]2O[C@@H]([C@H]3O[C@@](O)(CO)[C@H](C)C[C@@H]3C)C[C@@H]2C)CC[C@H]([C@]2(C)CC[C@]3(C[C@H](O)[C@@H](C)[C@@H]([C@@H](C)[C@@H](OC)[C@H](C)C(=O)O)O3)O2)O1 [Monensin sodium salt]"
  targetUnderTest: "HeLa MZ"
  answerLabel: 1
- molecule: "CCC1(c2cccc(O)c2)CCCCN(C)C1 (centres undefined) [Meptazinol hydrochloride]"
  targetUnderTest: "HeLa MZ"
  answerLabel: 1
- molecule: "C[C@]12COC(=O)C[C@@H]1CC[C@@H]1[C@@H]2CC[C@@]2(C)[C@H]1CC[C@]2(C)O"
  targetUnderTest: "HeLa MZ"
  answerLabel: -1
- molecule: "CCCC(C)(COC(N)=O)COC(=O)NC(C)C (centres undefined)"
  targetUnderTest: "HeLa MZ"
  answerLabel: -1
- molecule: "O=C(CCCN1CCC(n2c(=O)[nH]c3ccccc32)CC1)c1ccc(F)cc1"
  targetUnderTest: "HeLa MZ"
  answerLabel: 1
- molecule: "C[C@]12CC[C@H](O)C[C@@H]1CC[C@@H]1[C@@H]2CC[C@]2(C)C(=O)CC[C@@H]12 [Epiandrosterone]"
  targetUnderTest: "HeLa MZ"
  answerLabel: 1
- molecule: "CC(CCc1ccccc1)NC(C)C(O)c1ccc(O)cc1 (centres undefined)"
  targetUnderTest: "HeLa MZ"
  answerLabel: 1
- molecule: "COc1cc2c(cc1OC)C(C)NCC2 (centres undefined)"
  targetUnderTest: "HeLa MZ"
  answerLabel: -1
- molecule: "CNCC(O)c1ccc(O)cc1 (racemic) [(+,-)-Synephrine]"
  targetUnderTest: "HeLa MZ"
  answerLabel: -1
- molecule: "C[N+](C)(C)CCCCCCCCCC[N+](C)(C)C [Decamethonium bromide]"
  targetUnderTest: "HeLa MZ"
  answerLabel: -1
- molecule: "C=CCC1(CC(C)C)C(=O)NC(=O)NC1=O"
  targetUnderTest: "HeLa MZ"
  answerLabel: -1
- molecule: "CN[C@@H]1[C@@H](O)[C@@H](O[C@@H]2[C@@H](O)[C@H](O[C@H]3O[C@H](CN)CC[C@H]3N)[C@@H](N)C[C@H]2N)OC[C@]1(C)O.CN[C@@H]1[C@@H](O)[C@@H](O[C@@H]2[C@@H](O)[C@H](O[C@H]3O[C@H]([C@@H](C)N)CC[C@H]3N)[C@@H](N)C[C@H]2N)OC[C@]1(C)O.CN[C@@H]1[C@@H](O)[C@@H](O[C@@H]2[C@@H](O)[C@H](O[C@H]3O[C@H]([C@@H](C)NC)CC[C@H]3N)[C@@H](N)C[C@H]2N)OC[C@]1(C)O [Gentamicine sulfate]"
  targetUnderTest: "HeLa MZ"
  answerLabel: -1
- molecule: "C[C@]12Cc3c[nH]nc3C[C@@H]1CC[C@@H]1[C@@H]2CC[C@@]2(C)[C@H]1CC[C@]2(C)O"
  targetUnderTest: "HeLa MZ"
  answerLabel: -1
- molecule: "CCCC(C)C1(CC)C(=O)NC(=O)NC1=O (centres undefined)"
  targetUnderTest: "HeLa MZ"
  answerLabel: -1
